Data provenance: patent US20240044920A1

Biological target: T1, human ceruloplasmin (human, UniProt P00450 20-1065)
T1 construct: also called CP; purified CP
T1 sequence: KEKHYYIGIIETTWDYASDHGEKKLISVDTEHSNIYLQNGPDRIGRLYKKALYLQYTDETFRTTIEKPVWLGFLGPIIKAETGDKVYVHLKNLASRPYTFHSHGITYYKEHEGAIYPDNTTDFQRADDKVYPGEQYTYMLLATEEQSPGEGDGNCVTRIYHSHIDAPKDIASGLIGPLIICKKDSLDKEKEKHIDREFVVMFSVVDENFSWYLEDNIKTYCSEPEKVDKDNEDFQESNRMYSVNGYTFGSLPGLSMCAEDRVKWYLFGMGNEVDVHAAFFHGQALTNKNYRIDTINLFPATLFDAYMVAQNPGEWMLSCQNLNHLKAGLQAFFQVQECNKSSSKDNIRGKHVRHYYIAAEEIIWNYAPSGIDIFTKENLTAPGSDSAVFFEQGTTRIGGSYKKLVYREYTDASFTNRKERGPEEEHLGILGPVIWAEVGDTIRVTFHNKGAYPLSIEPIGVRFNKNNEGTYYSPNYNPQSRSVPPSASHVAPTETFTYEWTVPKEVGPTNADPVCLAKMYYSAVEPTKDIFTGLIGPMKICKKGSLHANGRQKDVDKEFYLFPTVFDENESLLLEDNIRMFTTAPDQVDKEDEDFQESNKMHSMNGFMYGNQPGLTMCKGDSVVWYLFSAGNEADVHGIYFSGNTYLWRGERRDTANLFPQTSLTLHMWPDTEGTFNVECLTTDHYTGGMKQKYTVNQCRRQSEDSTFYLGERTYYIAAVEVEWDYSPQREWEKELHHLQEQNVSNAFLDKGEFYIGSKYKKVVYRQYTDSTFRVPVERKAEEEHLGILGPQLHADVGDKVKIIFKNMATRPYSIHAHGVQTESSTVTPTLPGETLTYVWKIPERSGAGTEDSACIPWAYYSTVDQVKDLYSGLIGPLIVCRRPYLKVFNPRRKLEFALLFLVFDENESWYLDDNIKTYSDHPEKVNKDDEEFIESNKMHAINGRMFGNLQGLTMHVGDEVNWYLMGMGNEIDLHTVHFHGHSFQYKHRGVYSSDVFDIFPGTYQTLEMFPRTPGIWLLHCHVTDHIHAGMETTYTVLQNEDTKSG
Assay: competition ELISA on coated CP, biotinylated probe; competitor: mAb C
# probe binding, % of diluent control >= 80% gives criterion met, anything below gives criterion not met

Take a look at these entries with their results.
anti-CP mAb D (antibody, V domains shown, Recombinant full-length rabbit IgG from HEK-293; tested as conditioned medium, Protein A-purified and biotinylated) VH: QEQLVESGGGLVQPEGSLTLTCKASGFDFSSYWMCWVRQAPGKRPEWIACIYGGDGTSYFAGWAKGRFTISKTSSTTVTLQMTSLTAADTATYFCARADYYVYVDGGYGHAYDLWGPGTLVTVSS VL: DIVMTQTPASVEAAVGGSVTIKCQASDDIYSYLAWYQQKPGQPPKLLIFDASSLPSGVPSRFKGSGSGTQFTLTISGVQCADAATYYCQNYYGSSSSVHAFGGGTEVVVKG | criterion not met
anti-CP mAb H (antibody, V domains shown, Recombinant full-length rabbit IgG from HEK-293; tested as conditioned medium, Protein A-purified and biotinylated) VH: QSVEESGGRLVTPGTPLTLTCTVSGFSLSTYAMGWVRQAPGKGLEYIGIIYGGSGTFYASWAKGRFTISKTSTTVDLKITSPTTEDTATYFCARDGDDSYFDYFNLWGQGTLVTVSS VL: AAVLTQTPASVSAAVGGTVSISCQSNENIGSNLAWYQQKPGQPPKLLIYGASTLTSGVPSRFKGSGSGTAFTLTISGVQCDDAATYYCLGGYLSTSDTTFGGGTAVVVKG | criterion not met
anti-CP mAb G (antibody, V domains shown, Recombinant full-length rabbit IgG from HEK-293; also called mAb3) VH: QSLEESGGRLVTPGTLLTLTCTVSGFSLSSNAMSWVRQAPGEGLEWIGTISSRGSTYYANWAKGRFTISKTSTTVDLKITSPTTEDTATYFCARSSLAGYEPYYFKLWGQGTLVTVSS VL: DVVMTQTASPVSAAVGGTVTIKCQASESISSYLAWYQQKPGQPPKLLIYGASDLASGVPSRFKGSGSGTEFTLTISDLECADAATYYCQSYYGLSRNGYGNVFGGGTEVVVKG | criterion met

In: Record anti-CP mAb A (antibody, V domains shown, Recombinant full-length rabbit IgG from HEK-293; tested as conditioned medium, Protein A-purified and biotinylated) VH: QSLEESGGDLVKPGASLTLTCKASGFDLSRFYYMCWVRQAPGKGLEWIACIYAGRTGNTYYASWAKGRFTISKTSSTTVTLQMTSLTAADTATYFCARASGDFLAYTYAMDLWGPGTLVTVSS VL: AAVLTQTPASVSAAVGGTVTISCQASQSVDNNNYLAWYQQKPGQPPKLLIYEASKLASGVPSRFSGSGSGTQFTLTISDVQCDDATTYYCAGGYSSSADANAFGGGTEVVVKG ; criterion: probe binding, % of diluent control no lower than 80%. Met?
Out: criterion met
